system: KM12; test: NCI tumour cell line growth inhibition, 48 h
Active and inactive are the calls of the source. No stated cut-off is given here; in the data, active = GI50 up to about 1.1 µM and inactive = higher.
assay-readout: GI50

// below: answered compounds
1. Nc1c(O)c(C(=O)O)cc2ccccc12; 40.2 µM (inactive)
2. C=CCOC1=C(OCC=C)C(C2COC(C)(C)O2)OC1=O (stereo unspecified); > 100 µM (inactive)

[ask] State its GI50 for this compound: O=P(Nc1ccccc1)(Oc1ccccc1)N1CCN(c2ccccc2)CC1 (stereo unspecified)
[reply] 17.4 µM (inactive)

[ask] State its GI50 for this compound: CCCCN(CCCC)/C(=N\C#N)NCc1ccccc1
[reply] 21.3 µM (inactive)

[ask] State its GI50 for this compound: Nc1nc(N)c2ncn(CCCC(c3ccccc3)P(=O)(O)O)c2n1 (stereo unspecified)
[reply] > 100 µM (inactive)

[ask] State its GI50 for this compound: Cc1cc2c(cc1N)C(C)C1(CCC(=O)N2Cc2ccccc2)OCCO1 (stereo unspecified)
[reply] > 100 µM (inactive)

[ask] State its GI50 for this compound: c1ccc(-c2cn3c(nc4ccccc43)c(-c3ccccc3)n2)cc1
[reply] > 100 µM (inactive)

[ask] State its GI50 for this compound: CCCC(=O)N/S(=N/S(=O)(=O)c1ccc(Cl)cc1)C(Cl)(Cl)Cl (stereo unspecified)
[reply] > 100 µM (inactive)

[ask] State its GI50 for this compound: CN(c1ccc(Cl)cc1)S(=O)(=O)c1cccc([N+](=O)[O-])c1
[reply] 52.6 µM (inactive)

[ask] State its GI50 for this compound: COc1cc(Br)c(CC2(C#N)c3ccccc3C3C(N2C(=O)c2ccccc2)C3(Cl)Cl)cc1OC (stereo unspecified)
[reply] 23.1 µM (inactive)

[ask] State its GI50 for this compound: COc1ccc2[nH]c3c(O)c(-c4c(C)cc5c([nH]c6ccc(OC)cc65)c4O)c(C)cc3c2c1
[reply] 4.24 µM (inactive)

[ask] State its GI50 for this compound: CC1(C)CC(=O)C(=CNc2nc(-c3cccc([N+](=O)[O-])c3)cs2)C(=O)C1
[reply] 16.6 µM (inactive)

---

system: NCI-H23; assay: NCI tumour cell line growth inhibition, 48 h
Activity calls are given as the source filed them. No stated cut-off is given here; in the data, active = GI50 up to about 1.1 µM and inactive = higher.
assay-readout: GI50

// below: answered compounds
1. Nc1nc(N)c2c(n1)NC(=O)c1c(c3ccccc3n1Cc1ccc(Cl)cc1)C2; > 100 µM (inactive)
2. CC1(C)CC(=O)C(CC2C(=O)c3ccccc3C2=O)C(=O)C1; > 100 µM (inactive)
3. Fc1ccc(C(OCCN2CCC3CCC(C2)N3Cc2cc3ccccc3[nH]2)c2ccc(F)cc2)cc1 (centres undefined); 1.58 µM (inactive)

Now consider the entry below.
[ask] State its GI50 for this compound: COc1cc(/C=N\c2nc(-c3ccc(NS(=O)(=O)c4ccc(Cl)c(OC)c4)cc3)cs2)ccc1O
[reply] 31.1 µM (inactive)

---

test system: MDA-MB-435; experiment: NCI tumour cell line growth inhibition, 48 h
Activity calls are given as the source filed them. Rule as the data show it: active = GI50 up to about 1.1 µM and inactive = higher.
// values below are reported GI50

[ask] State its GI50 for this compound: Cc1ccc(-c2c(C#N)c(-c3ccc(C)cc3)n(NS(=O)(=O)c3ccccc3)c(=O)c2C#N)cc1
[reply] 61.1 µM (inactive)

---

tested on: SN12C; assay: NCI tumour cell line growth inhibition, 48 h
Calls of active or inactive are those of the source. Cut-off read from the data, not from the text of the source: active = GI50 up to about 1.1 µM and inactive = higher.
Bench note: report the call from active, inactive

1) CN1CCCCC1CCN1c2ccccc2Sc2ccc([S+](C)[O-])cc21 (centres undefined) [MESORIDAZINE]; inactive
2) COC1N(C2CC(O)C(CO)O2)C(=O)NC(=O)C1(F)Br (centres undefined); inactive

[ask] Entry c1ccc(COC2(OCc3ccccc3)CC3OC2C2NN=NC32)cc1 (centres undefined) : call = ?
[reply] inactive

[ask] Entry CC(C)c1ccccc1NC(=O)/C(Cl)=C1/Sc2ccccc2NC1=O : call = ?
[reply] inactive

[ask] Entry O=C(N/N=C/c1ccc2c(c1)OCO2)Nc1ccccc1Cl : call = ?
[reply] active

[ask] Entry COc1ccc(OC)c(C(Cc2ccnc3ccccc23)Cc2ccnc3ccccc23)c1 : call = ?
[reply] inactive

[ask] Entry C[C@@H]1[C@H](c2ccccc2)O[B-]2(c3ccc(Br)cc3)OC(=O)C[N+]12C (some centres undefined) : call = ?
[reply] inactive

[ask] Entry COc1ccc(N2C(=O)C(C)SC2c2cc3cc(Br)ccc3nc2Cl)cc1 (centres undefined) : call = ?
[reply] inactive

[ask] Entry Clc1ccc(Cl)c(/N=N\c2cc3c4c(c2)CCN4CCC3)c1 : call = ?
[reply] inactive

---

test system: LXFL 529; assay: NCI tumour cell line growth inhibition, 48 h
Activity calls are given as the source filed them. Cut-off read from the data, not from the text of the source: active = GI50 up to about 1.1 µM and inactive = higher.
// values below are reported GI50

// below: answered compounds
1) NN/C(Cc1ccccc1)=N\NO; 55.1 µM (inactive)
2) C=CCc1cc(OC)c2c(c1)C(OC)CC(c1ccc(OC)c(OC)c1)O2 (stereo unspecified); > 100 µM (inactive)
3) C=C1CC2CC(O)CC(C1)C2 (stereo unspecified); > 100 µM (inactive)
4) CC(=O)NNc1nc(C)c(C(=O)NNC(=O)C(=O)Nc2ccc(C)cc2[N+](=O)[O-])s1; > 100 µM (inactive)
5) COc1cc2c(c(OC)c1OC)-c1ccc(SC)c(=O)cc1C(CC(=O)Oc1cccc(C#N)c1)C2 (stereo unspecified); 0.516 µM (active)

Now consider the entry below.
[ask] State its GI50 for this compound: CCCCC(C(=O)CCC(=O)Nc1ccc(Cl)c(Cl)c1)C(=O)C(C)C (stereo unspecified)
[reply] 34.8 µM (inactive)

---

test system: MCF7; experiment: NCI tumour cell line growth inhibition, 48 h
The source made the active and inactive calls. Cut-off read from the data, not from the text of the source: active = GI50 up to about 1.1 µM and inactive = higher. Where a SMILES comes first, the peptide text is derived from it. The star is where a group is joined. ONb = O=[N+]([O-])c1ccc(CO*)cc1; Boc = CC(C)(C)OC(=O)*
assay-readout: GI50

[ask] State its GI50 for this compound: CC(C)CC(NC(=O)OC(C)(C)C)C(=O)NC(CCC(=O)OCc1ccc([N+](=O)[O-])cc1)C(=O)OCc1ccc([N+](=O)[O-])cc1 (stereo not drawn) (Boc-Leu-Glu(ONb)-ONb; configuration not given here)
[reply] > 10 µM (inactive)

[ask] State its GI50 for this compound: CC(=N/N=C/c1ccccn1)/C(C)=N/N=C(C)/C(C)=N/N=C(C)/C(C)=N/N=C(C)/C(C)=N\N=C\c1ccccn1
[reply] > 100 µM (inactive)

[ask] State its GI50 for this compound: CC(C)=CCC/C(C)=C/CCC(C(=O)COCc1ccccc1)P1(=O)OC(C)(C)CN1C(C)(C)C (configuration not stated)
[reply] 33.8 µM (inactive)

[ask] State its GI50 for this compound: COc1ccc(C(O)c2ccc3c(c2)OCO3)cc1 (configuration not stated)
[reply] > 100 µM (inactive)

[ask] State its GI50 for this compound: c1ccc(-c2cn3c(nc4ccccc43)c(-c3ccccc3)n2)cc1
[reply] 69.7 µM (inactive)

---

test system: COLO 205; assay: NCI tumour cell line growth inhibition, 48 h
Calls of active or inactive are those of the source. Rule as the data show it: active = GI50 up to about 1.1 µM and inactive = higher.
Bench note: report the call from Y = active, N = inactive

Consider the following illustrative entries.
1) COc1ccc2nc(NC(=O)C(=O)C(C(=O)c3ccccc3-c3ccccc3)C3OC(=O)c4ccccc43)sc2c1 (stereo not drawn); N
2) O=C1C(Cl)=C(c2ccc([N+](=O)[O-])cc2)C(=O)c2c(O)cccc21; N
3) O=C(CCC(=O)c1ccsc1)c1ccsc1; N
4) CC[C@@H]1CSC(/C=C/C2OC3OC(C)(C)OC3C3OC(C)(C)OC23)=N1 (stereo partly drawn); N
5) NN/C(Cc1ccccc1)=N\NO; N

[ask] Entry Clc1ccc(Cl)c(/N=N\c2cc3c4c(c2)CCN4CCC3)c1 : call = ?
[reply] N

[ask] Entry C=CCc1cc(-c2cc(CC=C)c(O)c(CN(CC)CC)c2)cc(CN(CC)CC)c1O : call = ?
[reply] N

[ask] Entry COc1ccc(C=O)c([N+](=O)[O-])c1 : call = ?
[reply] N

---

tested on: SNB-19; assay: NCI tumour cell line growth inhibition, 48 h
Active and inactive are the calls of the source. No stated cut-off is given here; in the data, active = GI50 up to about 1.1 µM and inactive = higher.
// values below are reported GI50

[ask] State its GI50 for this compound: CC#CC(=O)SCCNC(=O)CC
[reply] > 10 µM (inactive)

[ask] State its GI50 for this compound: CC(C)CCC(=O)c1ccoc1 [PERILLAKETONE]
[reply] > 100 µM (inactive)

[ask] State its GI50 for this compound: COc1ccc(NCc2c(O)ccc3ccccc23)cc1
[reply] > 100 µM (inactive)

[ask] State its GI50 for this compound: CC(=O)Nc1ccc(C(=O)NN2C(=O)C(Cl)C2c2ccc(O)cc2)cc1 (centres undefined)
[reply] > 100 µM (inactive)

[ask] State its GI50 for this compound: O=C(O)CCc1coc2ccc(O)cc12
[reply] > 100 µM (inactive)

---

test system: TK-10; assay: NCI tumour cell line growth inhibition, 48 h
Calls of active or inactive are those of the source. Cut-off read from the data, not from the text of the source: active = GI50 up to about 1.1 µM and inactive = higher.
Bench note: report the call from YES (active), NO (inactive)

Consider the following illustrative entries.
1. CCOC(=O)CCC(NC(=O)C(CCC(=O)OCC)NC(=O)C(Cc1ccc([N+](=O)[O-])cc1)NC(C)=O)C(=O)NNC(=O)OC(C)(C)C (stereo not drawn); NO
2. COC1C(OC(C)=O)CC(=O)OC(C)C/C=C/C=C\C(O)C(C)CC(CC=O)C1OC1OC(C)C(OC2CC(C)(O)C(OC(=O)CC(C)C)C(C)O2)C(N(C)C)C1O (stereo not drawn); NO

[ask] Entry CCC1c2[nH]c3ccccc3c2C[C@H]2C(=O)NC(CCC(=O)OC(C)(C)C)C(=O)N12 (stereo partly drawn) : call = ?
[reply] NO

[ask] Entry Fc1ccc(C(OCCN2CCC3CCC(C2)N3Cc2cc3ccccc3[nH]2)c2ccc(F)cc2)cc1 (stereo not drawn) : call = ?
[reply] NO

[ask] Entry Cc1cnc(NCCCN(C)C)c2c1[nH]c1ccc3cc(O)ccc3c12 : call = ?
[reply] NO

[ask] Entry O=c1/c(=C/c2cccc3ccccc23)sc2nc3ccccc3n12 : call = ?
[reply] NO

[ask] Entry NC1CC(N)c2c(Br)sc(Br)c21 (stereo not drawn) : call = ?
[reply] NO

[ask] Entry COC(=O)C1(Cc2ccc3c(c2)CCC3)Cc2ccccc2C1=O (stereo not drawn) : call = ?
[reply] NO

Origin of measurements: ChEMBL document CHEMBL1201862
